Reported IC50 by item:
targetEntity: BRD4 (BD1) (Homo sapiens)
Construct: with relatively long constructs also being possible, preferably amino acids 44-168
protocolNotes: Binding assay BRD4/acetylated peptide H4 (TR-FRET protein-protein interaction assay)
measuredMetric: IC50

# molecule, targetEntity, measuredMetric, result
measured = [
    ("CNC(=O)N1N=C(c2ccc(N3CCN(C)CC3)cc2)c2cc(NC(C)=O)ccc2CC1C (racemic)", "BRD4 (BD1) (Homo sapiens)", "IC50", "130 nM"),
    ("CNC(=O)N1N=C(c2ccc(Cl)cc2)c2cc(OCCN3CCCC3)ccc2CC1C (stereo not drawn)", "BRD4 (BD1) (Homo sapiens)", "IC50", "770 nM"),
    ("CNC(=O)N1N=C(c2ccc(Cl)cc2)c2cc(OC(F)(F)F)ccc2C[C@H]1C", "BRD4 (BD1) (Homo sapiens)", "IC50", "2500 nM"),
    ("CNC(=O)N1N=C(c2ccc(-c3c(C)noc3C)cc2)c2cc(OC)c(OC(F)F)cc2C[C@@H]1C", "BRD4 (BD1) (Homo sapiens)", "IC50", "100 nM"),
    ("CNC(=S)N1N=C(c2ccc(N3CCN(C)CC3)cc2)c2cc(OC)c(OC)cc2CC1C (racemic)", "BRD4 (BD1) (Homo sapiens)", "IC50", "190 nM"),
    ("CNC(=O)N1N=C(c2ccc(F)c(N3CCC(O)CC3)c2)c2cc(OC)c(OC)cc2CC1C (racemic)", "BRD4 (BD1) (Homo sapiens)", "IC50", "470 nM"),
    ("CNC(=O)N1N=C(c2ccc(-c3cccc(OC)c3)cc2)c2cc(OC)c(OC)cc2CC1C (racemic)", "BRD4 (BD1) (Homo sapiens)", "IC50", "110 nM"),
    ("CNC(=O)N1N=C(c2ccc(N3CCOC3=O)cc2)c2cc(OC)c(OC)cc2C[C@@H]1C", "BRD4 (BD1) (Homo sapiens)", "IC50", "40 nM"),
    ("CCC1Cc2cc(OC)c(OC)cc2C(c2ccc(-c3c(C)noc3C)cc2)=NN1C(=O)NC (racemic)", "BRD4 (BD1) (Homo sapiens)", "IC50", "320 nM"),
    ("CNC(=O)N1N=C(c2ccc(N3CCC(CCO)CC3)cc2)c2cc(OC)c(OC)cc2CC1C (racemic)", "BRD4 (BD1) (Homo sapiens)", "IC50", "40 nM"),
    ("CNC(=O)N1N=C(c2ccc(-c3cnn(C)c3)cc2)c2cc(OC)ccc2C[C@@H]1C", "BRD4 (BD1) (Homo sapiens)", "IC50", "130 nM"),
    ("CNC(=O)N1N=C(c2ccc(N3CC(C)(O)C3)cc2)c2cc(OC)c(OC)cc2C[C@@H]1C", "BRD4 (BD1) (Homo sapiens)", "IC50", "30 nM"),
]

* * *

Tested on: KMS-12-PE cells
protocolNotes: Cell proliferation assay (alamarBlue), KMS-12-PE
Format: cell-based
assayConditions: Homo sapiens, 120 hours incubation, inhibition of cell proliferation

# compound, IC50 / nM
rows = [
    ("CNC(=O)N1N=C(c2ccc(-c3sc(C)nc3C)cc2)c2cc(OC)c(OC)cc2CC1C (racemic)", 120),
    ("CNC(=O)N1N=C(c2ccc(-c3cnoc3)cc2)c2cc(OC)c(OC)cc2CC1C (racemic)", 130),
    ("CNC(=O)N1N=C(c2ccc(-c3cn(C)nn3)cc2)c2cc(OC)c(OC)cc2CC1C (racemic)", 130),
    ("CNC(=O)N1N=C(c2ccc(-c3cccc(NS(C)(=O)=O)c3)cc2)c2cc(OC)c(OC)cc2CC1C (racemic)", 80),
    ("CNC(=O)N1N=C(c2ccc(N3CCCCC3)cc2)c2cc(OC)c(OC)cc2CC1C (racemic)", 110),
    ("CNC(=O)N1N=C(c2ccc(-c3cnoc3)cc2)c2cc(OC)ccc2C[C@@H]1C", 350),
    ("CNC(=O)N1N=C(c2ccc(-n3nc(-c4ccccc4)cc3C3CC3)cc2)c2cc(OC)c(OC)cc2CC1C (racemic)", 80),
    ("CNC(=O)N1N=C(c2ccc(-n3nc(C)cc3C)cc2)c2cc(OC)ccc2C[C@@H]1C", 250),
    ("CNC(=O)N1N=C(c2ccc(-c3cccc(C(=O)N4CCCC4)c3)cc2)c2cc(OC)c(OC)cc2CC1C (racemic)", 70),
    ("CNC(=O)N1N=C(c2ccc(N3CCOCC3)cc2)c2cc(OC)c(OC)cc2C[C@@H]1C", 50),
    ("CNC(=O)N1N=C(c2ccc(N3CCN(S(C)(=O)=O)CC3)cc2)c2cc(OC)c(OC)cc2CC1C (racemic)", 120),
    ("CNC(=O)N1N=C(c2ccc(-c3c(C)nn(C)c3C)cc2)c2cc(OC)ccc2C[C@@H]1C", 110),
    ("CNC(=O)N1N=C(c2ccc(-c3c(C)noc3C)cc2)c2cc(OC)c(OC)cc2C[C@@H]1C", 110),
    ("CNC(=O)N1N=C(c2ccc(-n3nc(-c4ccccc4)cc3C)cc2)c2cc(OC)c(OC)cc2C[C@@H]1C", 30),
    ("CNC(=O)N1N=C(c2ccc(N3CCOCC3)cc2)c2cc(OC)ccc2C[C@@H]1C", 110),
    ("CNC(=O)N1N=C(c2ccc(-c3c(C)nn(C)c3C)cc2)c2cc(OC)c(OC)cc2CC1C (racemic)", 90),
    ("CNC(=O)N1N=C(c2ccc(-c3cccnc3C(F)(F)F)cc2)c2cc(OC)c(OC)cc2CC1C (racemic)", 260),
    ("CNC(=O)N1N=C(c2ccc(-c3c(C)noc3C)cc2)c2cc(OC)c(OC)cc2CC1C (racemic)", 90),
    ("CNC(=O)N1N=C(c2ccc(-c3c(C)noc3C)cc2)c2cc(OC)ccc2C[C@@H]1C", 110),
    ("CNC(=O)N1N=C(c2ccc(N3CCC3)cc2)c2cc(OC)c(OC)cc2C[C@@H]1C", 50),
    ("CNC(=O)N1N=C(c2ccc(-n3nc(-c4ccccn4)cc3C3CC3)cc2)c2cc(OC)ccc2C[C@@H]1C", 30),
    ("CNC(=O)N1N=C(c2ccc(N3CCN(C)CC3)cc2)c2cc(OC)c(OC)cc2CC1C (racemic)", 90),
    ("CNC(=O)N1N=C(c2ccc(N3CCC3)cc2)c2cc(OC)c(OC)cc2CC1C (racemic)", 100),
    ("CNC(=O)N1N=C(c2ccc(-c3cccnc3Cl)cc2)c2cc(OC)c(OC)cc2CC1C (racemic)", 110),
    ("CNC(=O)N1N=C(c2ccc(-c3c(C)noc3C)cc2)c2cc(Cl)c(OC)cc2CC1C (racemic)", 240),
    ("CNC(=O)N1N=C(c2ccc(N3CCN(C(=O)C(F)(F)F)CC3)cc2)c2cc(OC)c(OC)cc2CC1C (racemic)", 80),
    ("CNC(=O)N1N=C(c2ccc(N3CCOCC3=O)cc2)c2cc(OC)c(OC)cc2C[C@@H]1C", 80),
    ("CNC(=O)N1N=C(c2ccc(N3CCN(C(C)=O)CC3)cc2)c2cc(OC)c(OC)cc2CC1C (racemic)", 110),
    ("CNC(=O)N1N=C(c2ccc(-n3nc(-c4ccccc4)cc3C3CC3)cc2)c2cc(OC)c(OC)cc2C[C@@H]1C", 50),
]
